Tested on: 328373-195-R-J1-PDC complex spheroids, viability % test/control
Test: Anticancer human tumor 328373-195-R-J1-PDC patient-derived head and neck squamous carcinoma cell line growth inhibition [CLK]; active = viability on the fitted dose curve at most 10% of control; inactive = the rest
Settings: second compound 0.1 µM; first compound 0.1 µM
Hi there, use one of these labels in your reply, thanks! active, inactive

Query: What classification did CC(=O)O[C@H]1C(=O)[C@@]2(C)[C@H]([C@H](OC(=O)c3ccccc3)[C@]3(O)C[C@H](OC(=O)[C@H](O)[C@@H](NC(=O)c4ccccc4)c4ccccc4)C(C)=C1C3(C)C)[C@]1(OC(C)=O)CO[C@@H]1C[C@@H]2O + CNC(=O)c1ccc(Nc2nc(OC3CCCC3)c3c(-c4ccc5nc(C)oc5c4)c[nH]c3n2)c(OC)c1 end up with in this test?
Reply: inactive

Query: What classification did COc1cccc2c1C(=O)c1c(O)c3c(c(O)c1C2=O)CC(O)(C(=O)CO)CC3OC1CC(N)C(O)C(C)O1 (centres undefined) + CNC(=O)c1ccc(Nc2nc(OC3CCCC3)c3c(-c4ccc5nc(C)oc5c4)c[nH]c3n2)c(OC)c1 end up with in this test?
Reply: active

Query: What classification did CC1COCCN1c1cc(C2(S(C)(=N)=O)CC2)nc(-c2ccnc3[nH]ccc23)n1 (centres undefined) + CN1CCN(c2cc(C(=O)Nc3cc4cc(-c5cnn(C)c5)ccc4cn3)ccn2)CC1 end up with in this test?
Reply: inactive

Query: What classification did CC1(C)CCC(CN2CCN(c3ccc(C(=O)NS(=O)(=O)c4ccc(NCC5CCOCC5)c([N+](=O)[O-])c4)c(Oc4cnc5[nH]ccc5c4)c3)CC2)=C(c2ccc(Cl)cc2)C1 + CNC(=O)c1ccc(Nc2nc(OC3CCCC3)c3c(-c4ccc5nc(C)oc5c4)c[nH]c3n2)c(OC)c1 end up with in this test?
Reply: inactive

====

Test system: 328373-195-R-J1-PDC complex spheroids, viability % test/control
Test: Anticancer human tumor 328373-195-R-J1-PDC cell line growth inhibition [CLK];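 also: spheroids exposed to the agents for 7 days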
Details: second compound 0.1 µM; first compound 3.16 µM; stronger effect = lower value
Source text: A high-throughput screen of multi-cell type tumor spheroids was designed to identify active combinations of […] and targeted small molecules. Complex spheroids include a stromal component modeled by human endothelial cells (HUVEC) and fibroblasts modeled by human mesenchymal stem cells (MSCs). […] Compounds. […] If the clinical Cmax for an agent had not been determined, the highest concentration tested was 10 microM. […]
For each of the molecules below, state its viability, T/C.
Report the value in % with no unit label.

Query: For CC(CO)NC(=O)c1cc(-c2ccc(Cl)cc2)nn(-c2cnn(C)c2)c1=O (configuration not stated) + CN1CCN(c2cc(C(=O)Nc3cc4cc(-c5cnn(C)c5)ccc4cn3)ccn2)CC1 , write its viability, T/C.
Reply: 92.6

Query: For CC(=O)O[C@H]1C(=O)[C@@]2(C)[C@H]([C@H](OC(=O)c3ccccc3)[C@]3(O)C[C@H](OC(=O)[C@H](O)[C@@H](NC(=O)c4ccccc4)c4ccccc4)C(C)=C1C3(C)C)[C@]1(OC(C)=O)CO[C@@H]1C[C@@H]2O + CN1CCN(c2cc(C(=O)Nc3cc4cc(-c5cnn(C)c5)ccc4cn3)ccn2)CC1 , write its viability, T/C.
Reply: 7.93

====

Test system: 328373-195-R-J1-PDC complex spheroids, viability % test/control
Test: Anticancer human tumor 328373-195-R-J1-PDC cell line growth inhibition [CLK];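 also: spheroids exposed to the agents for 7 days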
Details: second compound 0.1 µM; first compound 1 µM; stronger effect = lower value
Quantity: viability, T/C (%)
Report the value in % with no unit label.

Query: For CC(Nc1ccc2c(c1)OCCn1cc(N3C(=O)OCC3C(F)F)nc1-2)C(N)=O (stereo not given) + CNC(=O)c1ccc(Nc2nc(OC3CCCC3)c3c(-c4ccc5nc(C)oc5c4)c[nH]c3n2)c(OC)c1 , write its viability, T/C.
Reply: 13.8

Query: For COc1ccc([C@@H](O)c2cc(-c3ncnc4cc(N5CCOCC5)ccc34)c(F)cc2Cl)nn1 + CNC(=O)c1ccc(Nc2nc(OC3CCCC3)c3c(-c4ccc5nc(C)oc5c4)c[nH]c3n2)c(OC)c1 , write its viability, T/C.
Reply: 10

Query: For CC1(C)CCC(CN2CCN(c3ccc(C(=O)NS(=O)(=O)c4ccc(NCC5CCOCC5)c([N+](=O)[O-])c4)c(Oc4cnc5[nH]ccc5c4)c3)CC2)=C(c2ccc(Cl)cc2)C1 + CNC(=O)c1ccc(Nc2nc(OC3CCCC3)c3c(-c4ccc5nc(C)oc5c4)c[nH]c3n2)c(OC)c1 , write its viability, T/C.
Reply: 11.7

Query: For CC1COCCN1c1cc(C2(S(C)(=N)=O)CC2)nc(-c2ccnc3[nH]ccc23)n1 (stereo not given) + CN1CCN(c2cc(C(=O)Nc3cc4cc(-c5cnn(C)c5)ccc4cn3)ccn2)CC1 , write its viability, T/C.
Reply: 55.2

Query: For O=C(c1cc(Cc2n[nH]c(=O)c3ccccc23)ccc1F)N1CCN(C(=O)C2CC2)CC1 + CN1CCN(c2cc(C(=O)Nc3cc4cc(-c5cnn(C)c5)ccc4cn3)ccn2)CC1 , write its viability, T/C.
Reply: 83.9

====

Test system: 328373-195-R-J1-PDC complex spheroids, viability % test/control
Assay: Anticancer human tumor 328373-195-R-J1-PDC cell line growth inhibition [CLK]; active means viability on the fitted dose curve at most 10% of control; inactive means the rest;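 also: spheroids exposed to the agents for 7 days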
Conditions: second compound 0.316 µM; first compound 0.3 µM
Hi there, use one of these labels in your reply, thanks! active, inactive

Query: What classification did C=CC(=O)Nc1cc(Nc2nccc(-c3cn(C)c4ccccc34)n2)c(OC)cc1N(C)CCN(C)C + CN1CCN(c2cc(C(=O)Nc3cc4cc(-c5cnn(C)c5)ccc4cn3)ccn2)CC1 end up with in this test?
Reply: inactive

Query: What classification did NC(=O)C(=Cn1cnc(-c2cc(C(F)(F)F)cc(C(F)(F)F)c2)n1)c1cncnc1 + CN1CCN(c2cc(C(=O)Nc3cc4cc(-c5cnn(C)c5)ccc4cn3)ccn2)CC1 end up with in this test?
Reply: active

Query: What classification did C=CC(=O)Nc1cc(Nc2nccc(-c3cn(C)c4ccccc34)n2)c(OC)cc1N(C)CCN(C)C + CNC(=O)c1ccc(Nc2nc(OC3CCCC3)c3c(-c4ccc5nc(C)oc5c4)c[nH]c3n2)c(OC)c1 end up with in this test?
Reply: active

Query: What classification did NC(=O)C(=Cn1cnc(-c2cc(C(F)(F)F)cc(C(F)(F)F)c2)n1)c1cncnc1 + CNC(=O)c1ccc(Nc2nc(OC3CCCC3)c3c(-c4ccc5nc(C)oc5c4)c[nH]c3n2)c(OC)c1 end up with in this test?
Reply: active

Query: What classification did CC(C)CC(NC(=O)C(Cc1ccccc1)NC(=O)c1cnccn1)B(O)O (stereo unspecified) + CN1CCN(c2cc(C(=O)Nc3cc4cc(-c5cnn(C)c5)ccc4cn3)ccn2)CC1 end up with in this test?
Reply: active

Query: What classification did CC(C)CC(NC(=O)C(Cc1ccccc1)NC(=O)c1cnccn1)B(O)O (stereo unspecified) + CNC(=O)c1ccc(Nc2nc(OC3CCCC3)c3c(-c4ccc5nc(C)oc5c4)c[nH]c3n2)c(OC)c1 end up with in this test?
Reply: active

====

Test system: 328373-195-R-J1-PDC complex spheroids, viability % test/control
Assay: Anticancer human tumor 328373-195-R-J1-PDC cell line growth inhibition [CLK]; active means viability on the fitted dose curve at most 10% of control; inactive means the rest;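 also: spheroids exposed to the agents for 7 days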
Details: second compound 0.1 µM; first compound 0.1 µM
Hi there, use one of these labels in your reply, thanks! active, inactive

Query: What classification did CCc1c2c(nc3ccc(O)cc13)-c1cc3c(c(=O)n1C2)COC(=O)[C@]3(O)CC + CN1CCN(c2cc(C(=O)Nc3cc4cc(-c5cnn(C)c5)ccc4cn3)ccn2)CC1 end up with in this test?
Reply: active

Query: What classification did CC1COCCN1c1cc(C2(S(C)(=N)=O)CC2)nc(-c2ccnc3[nH]ccc23)n1 (stereo not given) + CNC(=O)c1ccc(Nc2nc(OC3CCCC3)c3c(-c4ccc5nc(C)oc5c4)c[nH]c3n2)c(OC)c1 end up with in this test?
Reply: inactive

Query: What classification did C=C(F)C(=O)N1CCN(c2nc(OCC3CCCN3C)nc3c2CCN(c2cccc4cccc(Cl)c24)C3)CC1CC#N (stereo not given) + CN1CCN(c2cc(C(=O)Nc3cc4cc(-c5cnn(C)c5)ccc4cn3)ccn2)CC1 end up with in this test?
Reply: inactive

Query: What classification did O=c1[nH]cc(F)c(=O)[nH]1 + CN1CCN(c2cc(C(=O)Nc3cc4cc(-c5cnn(C)c5)ccc4cn3)ccn2)CC1 end up with in this test?
Reply: inactive

Query: What classification did CC(=O)O[C@H]1C(=O)[C@@]2(C)[C@H]([C@H](OC(=O)c3ccccc3)[C@]3(O)C[C@H](OC(=O)[C@H](O)[C@@H](NC(=O)c4ccccc4)c4ccccc4)C(C)=C1C3(C)C)[C@]1(OC(C)=O)CO[C@@H]1C[C@@H]2O + CN1CCN(c2cc(C(=O)Nc3cc4cc(-c5cnn(C)c5)ccc4cn3)ccn2)CC1 end up with in this test?
Reply: active
